Kindly state IC50 for each of the entries shown.
System: Ramos RA1 B cells
Test description: Ramos FLIPR Assay (intracellular calcium flux, anti-human IgM stimulated)
Assay type: cell-based
Protocol conditions: Homo sapiens, Ramos; Table 4, Comparative Example; read-out: Comparative Example Ramos IC50

Below, 7 molecules whose answers are already recorded.
{"Molecule": "C=CC(=O)N1CCc2c(cccc2-c2c(F)cc(C(N)=O)c3[nH]c4c(c23)CC[C@H](C(C)(C)O)C4)C1 (single isomer, unassigned)", "Target entity": "Ramos RA1 B cells", "Readout label": "IC50", "Assay value": "> 300 nM"}
{"Molecule": "C=CC(=O)N1CCCOc2c(-c3c(F)cc(C(N)=O)c4[nH]c5cc(C(F)(F)F)ccc5c34)cccc21 (single isomer, unassigned)", "Target entity": "Ramos RA1 B cells", "Readout label": "IC50", "Assay value": "300 nM"}
{"Molecule": "C=CC(=O)N1CCc2c(cccc2-c2c(F)cc(C(N)=O)c3[nH]c4cc(C(F)(F)F)ccc4c23)C1 (single isomer, unassigned)", "Target entity": "Ramos RA1 B cells", "Readout label": "IC50", "Assay value": "> 300 nM"}
{"Molecule": "C=CC(=O)N1CCSc2c(-c3c(F)cc(C(N)=O)c4[nH]c5ccccc5c34)cccc21 (single isomer, unassigned)", "Target entity": "Ramos RA1 B cells", "Readout label": "IC50", "Assay value": "150 nM"}
{"Molecule": "C=CC(=O)N1CCOc2c(-c3c(F)cc(C(N)=O)c4[nH]c5ccccc5c34)cccc21 (single isomer, unassigned)", "Target entity": "Ramos RA1 B cells", "Readout label": "IC50", "Assay value": "65 nM"}
{"Molecule": "C=CC(=O)N1CCc2c(cccc2-c2c(F)cc(C(N)=O)c3[nH]c4ccccc4c23)C1 (single isomer, unassigned)", "Target entity": "Ramos RA1 B cells", "Readout label": "IC50", "Assay value": "72 nM"}
{"Molecule": "C=CC(=O)N1CCc2c(cccc2-c2c(F)cc(C(N)=O)c3[nH]c4c(c23)CCC(C(F)(F)F)C4)C1 (single isomer, unassigned)", "Target entity": "Ramos RA1 B cells", "Readout label": "IC50", "Assay value": "> 300 nM"}

Read the next record carefully.
IN: Which value of IC50 has been reported for C=CC(=O)N1CCc2c(cccc2-c2c(F)cc(C(N)=O)c3[nH]c4c(c23)CC(F)(F)CC4)C1 (single isomer, unassigned) in the records?
OUT: > 300 nM

----------
For each record, write down the corresponding IC50.
Target entity: human recombinant Btk (Homo sapiens (Human), UniProt Q06187)
Sequence (Q06187 whole entry): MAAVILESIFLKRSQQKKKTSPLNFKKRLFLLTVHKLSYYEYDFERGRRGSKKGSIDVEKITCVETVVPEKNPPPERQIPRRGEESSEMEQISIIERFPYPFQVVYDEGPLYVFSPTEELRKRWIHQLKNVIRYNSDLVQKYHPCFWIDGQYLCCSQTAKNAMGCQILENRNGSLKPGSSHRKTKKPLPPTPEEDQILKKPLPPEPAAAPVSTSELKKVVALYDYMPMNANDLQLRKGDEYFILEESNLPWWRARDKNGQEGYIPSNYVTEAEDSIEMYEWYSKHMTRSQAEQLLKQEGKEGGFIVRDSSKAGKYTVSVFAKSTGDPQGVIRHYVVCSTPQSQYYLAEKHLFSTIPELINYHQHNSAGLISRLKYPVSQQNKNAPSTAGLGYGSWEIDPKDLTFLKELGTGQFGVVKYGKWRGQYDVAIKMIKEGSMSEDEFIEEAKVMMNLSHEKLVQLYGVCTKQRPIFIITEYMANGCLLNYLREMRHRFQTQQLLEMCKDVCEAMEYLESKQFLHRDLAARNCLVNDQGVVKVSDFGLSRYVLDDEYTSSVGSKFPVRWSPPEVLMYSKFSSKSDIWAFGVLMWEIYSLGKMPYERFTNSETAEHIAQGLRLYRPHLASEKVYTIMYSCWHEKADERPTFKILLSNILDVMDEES
Test description: Human Recombinant Btk Enzyme Assay
Assay type: biochemical
Protocol conditions: Table 3; ATP 20 μM, 60 min room temperature; read-out: Btk IC50 value

Past entries and their recorded results:
{"Molecule": "C=CC(=O)N1CCc2c(cccc2-c2c(F)cc(C(N)=O)c3[nH]c4ccc(Cl)cc4c23)C1 (racemic) [Example 29]", "IC50": "260 pM"}
{"Molecule": "C=CC(=O)N1CCc2c(cccc2-c2c(Cl)cc(C(N)=O)c3[nH]c4c(c23)CCCC4)C1 (racemic) [Example 32]", "IC50": "600 pM"}
{"Molecule": "C=CC(=O)N1CCc2c(cccc2-c2c(F)cc(C(N)=O)c3[nH]c4cc(C(=O)N(C)C)ccc4c23)C1 (racemic) [Example 28]", "IC50": "170 pM"}

# evaluate next
IN: Reported IC50 for C=CC(=O)N1CCSc2c(-c3c(F)cc(C(N)=O)c4[nH]c5ccccc5c34)cccc21 (racemic) [Example 13] : what is it?
OUT: 130 pM

----------
Answer each item with its documented pIC50.
Target entity: human recombinant Btk (Homo sapiens (Human), UniProt Q06187)
Test description: Human Recombinant Btk Enzyme Assay
Assay type: biochemical
Protocol conditions: Table 3; ATP 20 μM, 60 min room temperature; read-out: Btk IC50 value
One number for each entry, as −log10 of the molar value.

Solved cases (4 shown):
{"Compound": "C=CC(=O)N1CCCOc2c(-c3c(F)cc(C(N)=O)c4[nH]c5cc(C(F)(F)F)ccc5c34)cccc21 (single isomer, unassigned) [Example 12]", "pIC50": 9.43}
{"Compound": "C=CC(=O)N1CCc2c(cccc2-c2c(F)cc(C(N)=O)c3[nH]c4ccccc4c23)C1 (single isomer, unassigned) [Example 5]", "pIC50": 10.17}
{"Compound": "C=CC(=O)N1CCc2c(cccc2-c2c(F)cc(C(N)=O)c3[nH]c4cc(CCO)ccc4c23)C1 (racemic) [Example 25]", "pIC50": 8.82}
{"Compound": "C=CC(=O)N1CCc2c(cccc2-c2c(F)cc(C(N)=O)c3[nH]c4cc(C(F)(F)F)ccc4c23)C1 (single isomer, unassigned) [Example 7]", "pIC50": 9.74}

List pIC50 for every entry below, keeping the order given.
1. C=CC(=O)N1CCc2c(cccc2-c2c(F)cc(C(N)=O)c3[nH]c4c(c23)CC(F)(F)CC4)C1 (single isomer, unassigned) [Example 6]
2. C=CC(=O)N1CCc2c(cccc2-c2c(F)cc(C(N)=O)c3[nH]c4c(c23)CC(F)(F)CC4)C1 (racemic) [Example 1]

OUT:
[9.92, 9.74]

List the reported pIC50 of each compound below.
1. C=CC(=O)N1CCOc2c(-c3c(F)cc(C(N)=O)c4[nH]c5ccccc5c34)cccc21 (racemic) [Example 3]
2. C=CC(=O)N1CCOc2c(-c3c(F)cc(C(N)=O)c4[nH]c5ccccc5c34)cccc21 (single isomer, unassigned) [Example 8]

OUT:
1: 10.12; 2: 10.11

----------
Kindly supply the reported IC50 values for the records listed here.
System: Ramos RA1 B cells
Test description: Ramos FLIPR Assay (intracellular calcium flux, anti-human IgM stimulated)
Format: cell-based
Protocol conditions: Homo sapiens, Ramos, Table 3; calcium flux, goat anti-human IgM 2.5 μg/mL; read-out: Ramos IC50 value
Method: Ramos FLIPR Assay […] Dye-loaded cells were pelleted (Beckmann GS-CKR, 1200 rpm, room temperature, 5 min) and resuspended at room temperature in RPMI minus phenol red with 50 mM HEPES and 10% FBS to a density of 1×10^6 cells/mL. […] Changes in intracellular calcium concentrations were measured for 180 seconds and percent inhibition was determined relative to peak calcium levels seen in the presence of stimulation only. […]
Kindly format the answer as number then unit.

{"Molecule": "C=CC(=O)N1CCc2c(cccc2-c2c(F)cc(C(N)=O)c3[nH]c4c(c23)CCC(C(F)(F)F)C4)C1 (single isomer, unassigned)", "Readout label": "IC50", "Assay value": "22.2 nM"}
{"Molecule": "C=CC(=O)N1CCc2c(cccc2-c2c(Cl)cc(C(N)=O)c3[nH]c4ccccc4c23)C1 (single isomer, unassigned) [Example 24]", "Readout label": "IC50", "Assay value": "3 nM"}
{"Molecule": "C=CC(=O)N1CCc2c(cccc2-c2c(Cl)cc(C(N)=O)c3[nH]c4ccccc4c23)C1 [Example 30]", "Readout label": "IC50", "Assay value": "20 nM"}
{"Molecule": "C=CC(=O)N1CCc2c(cccc2-c2c(F)cc(C(N)=O)c3[nH]c4c(c23)CC[C@H](C(C)(C)O)C4)C1 (single isomer, unassigned)", "Readout label": "IC50", "Assay value": "2.3 nM"}

IN: Hi! What's the reported IC50 for C=CC(=O)N1CCc2c(cccc2-c2c(Cl)cc(C(N)=O)c3[nH]c4c(c23)CCCC4)C1 (racemic) on Ramos RA1 B cells?
OUT: 46 nM

----------
Tested on: Ramos RA1 B cells
Test description: Ramos FLIPR Assay (intracellular calcium flux, anti-human IgM stimulated)
Type: cell-based
Protocol conditions: Table 3; calcium flux, goat anti-human IgM 2.5 μg/mL; read-out: Ramos IC50 value
Readout label: pIC50
Give bare numbers, as −log10 of the molar value.

IN: pIC50 for C=CC(=O)N1CCc2c(cccc2-c2c(F)cc(C(N)=O)c3[nH]c4c(c23)CCC(C(F)(F)F)C4)C1 (single isomer, unassigned) ?
OUT: 7.79

----------
What IC50 was measured for each of the following?
Target entity: human recombinant Btk (Homo sapiens (Human))
Test description: Human Recombinant Btk Enzyme Assay
Format: biochemical
Protocol conditions: Table 3; ATP 20 μM, 60 min room temperature; read-out: Btk IC50 value
One number for each entry, in nM.

{"Compound": "C=CC(=O)N1CCSc2c(-c3c(F)cc(C(N)=O)c4[nH]c5ccccc5c34)cccc21 (single isomer, unassigned) [Example 14]", "Target entity": "human recombinant Btk (Homo sapiens (Human))", "Readout label": "IC50", "Unit spec": "nM", "Assay value": 0.073}
{"Compound": "N#CN1CCc2c(cccc2-c2c(F)cc(C(N)=O)c3[nH]c4cc(CCO)ccc4c23)C1 (racemic) [Example 27]", "Target entity": "human recombinant Btk (Homo sapiens (Human))", "Readout label": "IC50", "Unit spec": "nM", "Assay value": 4.8}
{"Compound": "C=CC(=O)N1CCc2c(cccc2-c2c(Cl)cc(C(N)=O)c3[nH]c4c(c23)CNCC4)C1 (racemic) [Example 33]", "Target entity": "human recombinant Btk (Homo sapiens (Human))", "Readout label": "IC50", "Unit spec": "nM", "Assay value": 2.3}

Please find the next compound below.
IN: Look up IC50: C=CC(=O)N1CCc2c(cccc2-c2c(F)cc(C(N)=O)c3[nH]c4ccncc4c23)C1 (racemic) [Example 31]
OUT: 0.3
